Below is a list of entries, each paired with its recorded inhibition value.
# ASSAYED SYSTEM: GTPase HRas (Homo sapiens, UniProt P01112)
# Sequence (P01112 whole entry, looked up): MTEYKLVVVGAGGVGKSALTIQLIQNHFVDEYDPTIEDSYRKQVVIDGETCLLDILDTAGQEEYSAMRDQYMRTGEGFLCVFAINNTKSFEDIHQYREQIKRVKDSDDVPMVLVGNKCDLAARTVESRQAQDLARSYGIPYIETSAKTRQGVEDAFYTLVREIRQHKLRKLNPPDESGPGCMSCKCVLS
# MEASUREMENT DESCRIPTION: Inhibition of nucleotide exchange process of oncogenic Ras at concentration 50 uM

# COMPOUND, ASSAYED SYSTEM, inhibition
measured = [
    ("CCOC(=O)/C=C/C[C@@H]1CN(Sc2ccc([N+](=O)[O-])cc2)C[C@H](n2nc(C)c3c(Cl)c4cc(OC)ccc4nc32)O1", "GTPase HRas (Homo sapiens, UniProt P01112)", "64%"),
    ("COc1ccc2nc3c(c(C)nn3[C@H]3C=C[C@@H](OCCC(=O)c4ccccc4)O3)c(Cl)c2c1", "GTPase HRas (Homo sapiens, UniProt P01112)", "25%"),
    ("COc1ccc2nc3c(c(C)nn3[C@@H]3O[C@H](COC(=O)c4ccccc4)[C@@H](O)[C@H]3O)c(Cl)c2c1", "GTPase HRas (Homo sapiens, UniProt P01112)", "16%"),
    ("COc1ccc2nc3c(c(C)nn3[C@@H]3O[C@H](COC(=O)c4ccccc4)[C@@H](OCc4ccccc4)[C@H]3OCc3ccccc3)c(Cl)c2c1", "GTPase HRas (Homo sapiens, UniProt P01112)", "53%"),
    ("COc1ccc2nc3c(c(C)nn3[C@@H]3O[C@H](COC(=O)C(C)C)[C@@H](OC(=O)C(C)C)[C@H]3OC(=O)C(C)C)c(Cl)c2c1", "GTPase HRas (Homo sapiens, UniProt P01112)", "33%"),
    ("COc1ccc2nc3c(c(C)nn3[C@H]3CC[C@@H](COC(=O)c4ccccc4)O3)c(Cl)c2c1", "GTPase HRas (Homo sapiens, UniProt P01112)", "38%"),
    ("COc1ccc2nc3c(c(C)nn3[C@H]3CN(Sc4ccccc4[N+](=O)[O-])C[C@@H](C/C=C/C(C)=O)O3)c(Cl)c2c1", "GTPase HRas (Homo sapiens, UniProt P01112)", "88%"),
    ("COc1ccc2nc3c(c(C)nn3[C@@H]3O[C@H](OCc4ccccc4)[C@@H](OCc4ccccc4)[C@H]3OCc3ccccc3)c(Cl)c2c1", "GTPase HRas (Homo sapiens, UniProt P01112)", "35%"),
    ("COc1ccc2nc3c(c(C)nn3[C@@H]3O[C@H](COC(C)=O)[C@@H](OC(C)=O)[C@H]3OC(C)=O)c(Cl)c2c1", "GTPase HRas (Homo sapiens, UniProt P01112)", "3%"),
    ("COc1ccc2nc3c(c(C)nn3[C@@H]3O[C@H](COC(=O)c4ccc([N+](=O)[O-])cc4)[C@@H](OC(=O)c4ccc([N+](=O)[O-])cc4)[C@H]3OC(=O)c3ccc([N+](=O)[O-])cc3)c(Cl)c2c1", "GTPase HRas (Homo sapiens, UniProt P01112)", "59%"),
    ("COc1ccc2nc3c(c(C)nn3[C@H]3C=C[C@@H](OC(O)CC(=O)c4ccccc4)O3)c(Cl)c2c1 (stereo not given in full)", "GTPase HRas (Homo sapiens, UniProt P01112)", "48%"),
    ("COc1ccc2nc3c(c(C)nn3[C@@H]3O[C@H](COC(=O)Cc4ccccc4)[C@@H](OC(=O)Cc4ccccc4)[C@H]3OC(=O)Cc3ccccc3)c(Cl)c2c1", "GTPase HRas (Homo sapiens, UniProt P01112)", "62%"),
    ("COc1ccc2nc3c(c(C)nn3[C@@H]3O[C@H](COC(=O)c4cccnc4)[C@@H](OC(=O)c4cccnc4)[C@H]3OC(=O)c3cccnc3)c(Cl)c2c1", "GTPase HRas (Homo sapiens, UniProt P01112)", "33%"),
    ("COc1ccc2nc3c(c(C)nn3[C@H]3CN(S(=O)(=O)c4ccccc4)C[C@@H](COC(=O)c4ccccc4)O3)c(Cl)c2c1", "GTPase HRas (Homo sapiens, UniProt P01112)", "47%"),
    ("COc1ccc2nc3c(c(C)nn3[C@@H]3O[C@H](COC(=O)c4ccoc4)[C@@H](OC(=O)c4ccoc4)[C@H]3OC(=O)c3ccoc3)c(Cl)c2c1", "GTPase HRas (Homo sapiens, UniProt P01112)", "49%"),
]
